Kindly supply the reported growth values for the records listed here.
tested on: M14 melanoma; assay: NCI-60 one-dose screen, 48 h (100 = growth as untreated, 0 = no growth, -100 = all killed); details: 10 µM unless noted
Compounds without any hit were thinned out: in the full panel of roughly 83,000, 20% have a hit. Activity calls are given as the source filed them. How the source made its calls: active means growth percent below 10; inactive means the rest.

Data request: Give growth for `Cc1ccc2c(ccc3c[n+]4c5ccccc5ccc4n32)c1`
Data returned: 2.99% (active)

Data request: Give growth for `O=C1OCc2cccc3cccc1c23`
Data returned: 103% (inactive)

Data request: Give growth for `CNC(=O)N/N=C/c1ccc([N+](=O)[O-])o1`
Data returned: 102% (inactive)

Data request: Give growth for `NC1=CC(=O)c2ccccc2C1=O`
Data returned: 83% (inactive)

---

system: HT29 colon; assay: NCI-60 one-dose screen, 48 h (100 = growth as untreated, 0 = no growth, -100 = all killed); settings: 10 µM unless noted
About 83,000 compounds went through this panel and 20% of them were active in at least one assay; those are over-represented in the sample as a whole. Where a SMILES comes first, the peptide text is derived from it. The star is where a group is joined. Trt = c1ccc(C(c2ccccc2)(c2ccccc2)*)cc1; Cbz = O=C(OCc1ccccc1)*
property-name: growth (%)
I only need the number, in %, no unit after it.

Data request: Give growth for `CCOC(=O)/C=C/c1ccc([N+](=O)[O-])o1`
Data returned: 36.7

Data request: Give growth for `NC(N)=N/N=C/c1ccc([N+](=O)[O-])o1`
Data returned: 33.2

Data request: Give growth for `O=C1OCc2cccc3cccc1c23`
Data returned: 105

Data request: Give growth for `CC(C)c1ccc2nc3ccc(C(=O)NCCN4CCN(c5ccccc5)CC4)cn3c(=O)c2c1`
Data returned: 38.8

Data request: Give growth for `COC(=O)c1nc(=S)[nH]c(C(=O)OC)c1C(=O)c1ccc2ccccc2c1`
Data returned: 112

Data request: Give growth for `Cn1c2c(c3ccccc31)CCN1C[C@@H]3CCCC[C@H]3C[C@@H]21`
Data returned: 1.8

Data request: Give growth for `Cc1ccc2c(ccc3c[n+]4c5ccccc5ccc4n32)c1`
Data returned: 8.52

Data request: Give growth for `COc1ccc2nc3cc(Cl)ccc3c(NCCNc3c4ccc(Cl)cc4nc4ccc(OC)cc34)c2c1`
Data returned: -65.7

Data request: Give growth for `C=CCOc1ccc(N=NC(C#N)C#N)cc1`
Data returned: 72.7

Data request: Give growth for `COc1ccc(N=N/N=c2\sc3cc(OC)ccc3n2C)cc1`
Data returned: 78.9

Data request: Give growth for `O[C@H]1[C@H]2c3cc4c(cc3CN3CCC(=C[C@@H]1O)[C@H]23)OCO4`
Data returned: 18.5

Data request: Give growth for `CNc1ccc2c(c1)c1ccccc1n2C`
Data returned: 115

Data request: Give growth for CCC(c1cccc(O)c1)C(CC)c1cccc(O)c1 (stereo not drawn)
Data returned: 42

Data request: Give growth for `COC(=O)c1nc(=S)[nH]c(C(=O)OC)c1C(=O)c1ccccn1`
Data returned: 34.5

Data request: Give growth for `CC(C)(C)c1ccc(O)c(C2CCCCC2)c1`
Data returned: 87

Data request: Give growth for `CC1(C)CC([P+](c2ccccc2)(c2ccccc2)c2ccccc2)=NN1`
Data returned: 24.9

Data request: Give growth for `CCCCCCCCCCCCCCCCN(CC)CC`
Data returned: -56.8

Data request: Give growth for COC(=O)C(CSC(c1ccccc1)(c1ccccc1)c1ccccc1)NC(=O)C(CC(N)=O)NC(=O)OCc1ccccc1 (stereo not drawn) (Cbz-Asn-Cys(Trt)-OMe; configuration not given here)
Data returned: 33.7

Data request: Give growth for `C/C=C1\SC(=S)NC1=O`
Data returned: 108

Data request: Give growth for `O=C(Nc1ccccc1)c1cc(Cl)ccc1O`
Data returned: 89

Data request: Give growth for CN1c2ccccc2C(C)(C)C12C=Cc1cc(O)ccc1O2 (stereo not drawn)
Data returned: 55.9

Data request: Give growth for `Cc1ccc2nc(-[n+]3cc4ccccc4cc3C)ccc2c1`
Data returned: 14.5

Data request: Give growth for O=C1C2=C(Nc3cc([N+](=O)[O-])ccc3N2)OC1c1c2ccccc2cc2ccccc12 (stereo not drawn)
Data returned: 51.4

---

test system: K-562 leukemia; experiment: NCI-60 one-dose screen, 48 h (100 = growth as untreated, 0 = no growth, -100 = all killed); conditions: 100 µM
About 83,000 compounds went through this panel and 20% of them were active in at least one assay; those are over-represented in the sample as a whole.
property-name: growth (%)
I only need the number, in %, no unit after it.

Data request: Give growth for `O=C(Nc1c(Cl)cccc1Cl)Oc1cccc2cccnc12`
Data returned: 11.1

Data request: Give growth for `O=C(O)c1c(Cl)c(Cl)c(Cl)c(Cl)c1-c1c2cc(I)c(=O)c(I)c-2oc2c(I)c(O)c(I)cc12`
Data returned: -33.1

Data request: Give growth for `O=C(Nc1cccc(Br)c1)Oc1cccc2cccnc12`
Data returned: 12.6

Data request: Give growth for `COc1ccc(-c2cscc2N)cc1`
Data returned: 22.9

Data request: Give growth for `CN(C)C(=O)c1ccc(SC(=S)NCc2ccccc2)cc1`
Data returned: 3.9

---

tested on: ACHN renal; experiment: NCI-60 one-dose screen, 48 h (100 = growth as untreated, 0 = no growth, -100 = all killed); conditions: 10 µM unless noted
About 83,000 compounds went through this panel and 20% of them were active in at least one assay; those are over-represented in the sample as a whole.
Values of growth greater than or equal to 30% map to Satisfied; values below map to Not satisfied.

Data request: Check this compound for growth at or above 30%: `CNc1ccc2c(c1)c1ccccc1n2C`
Data returned: Satisfied

Data request: Check this compound for growth at or above 30%: `Cc1ccc(N=C=C(c2ccccc2)c2ccccc2)cc1`
Data returned: Satisfied

Data request: Check this compound for growth at or above 30%: `N#CSCc1ccc(Cl)c(CSC#N)c1`
Data returned: Satisfied

Data request: Check this compound for growth at or above 30%: `O=C1c2ccccc2C(=O)c2sc(Nc3ccc(Cl)cc3)nc21`
Data returned: Not satisfied

Data request: Check this compound for growth at or above 30%: CCC(c1cccc(O)c1)C(CC)c1cccc(O)c1 (configuration not stated)
Data returned: Satisfied

Data request: Check this compound for growth at or above 30%: `S=C(NCCNC(=S)[S][Sn]([c]1ccccc1)([c]1ccccc1)[c]1ccccc1)[S][Sn]([c]1ccccc1)([c]1ccccc1)[c]1ccccc1`
Data returned: Not satisfied

Data request: Check this compound for growth at or above 30%: `CC(C)(C)CC(C)(C)c1ccc(OCCSC(=N)N)cc1`
Data returned: Satisfied

Data request: Check this compound for growth at or above 30%: `CCCCCCCCCCCCCCCCN(CC)CC`
Data returned: Not satisfied

Data request: Check this compound for growth at or above 30%: `O=C1c2ccccc2C(=O)c2sc(Nc3cccc(Cl)c3)nc21`
Data returned: Not satisfied

Data request: Check this compound for growth at or above 30%: Cc1ccnc(NC(c2ccccc2)c2ccc3cccnc3c2O)c1 (configuration not stated)
Data returned: Not satisfied

Data request: Check this compound for growth at or above 30%: `O=C1NC(=O)/C(=C/C=C/c2ccccc2)S1`
Data returned: Not satisfied

Data request: Check this compound for growth at or above 30%: `c1ccc2c(c1)Nc1cc3ccccc3cc1N2`
Data returned: Not satisfied

---

tested on: OVCAR-4 ovarian; test: NCI-60 one-dose screen, 48 h; conditions: 10 µM unless noted
This is part of a sample that, as a whole, favours compounds with a hit. Of some 83,000 tested, about 20% had one in any assay. Calls of active or inactive are those of the source. Rule for the calls: active = growth percent below 10; inactive = the rest. Where a SMILES comes first, the peptide text is derived from it. The star is where a group is joined. Trt = c1ccc(C(c2ccccc2)(c2ccccc2)*)cc1; Cbz = O=C(OCc1ccccc1)*
Parameter call: string, one of t (active), f (inactive)

Data request: Which outcome was assigned to CCC1OC(OC)C=CC1=O (stereo not given) in this test?
Data returned: f

Data request: Which outcome was assigned to `CCOc1ccc(-c2nc3ccc(-c4nc5ccc(N6CCN(C)CC6)cc5[nH]4)cc3[nH]2)cc1` in this test?
Data returned: t

Data request: Which outcome was assigned to COC(=O)C(CSC(c1ccccc1)(c1ccccc1)c1ccccc1)NC(=O)C(CC(N)=O)NC(=O)OCc1ccccc1 (stereo not drawn) (Cbz-Asn-Cys(Trt)-OMe; configuration not given here) in this test?
Data returned: f

Data request: Which outcome was assigned to `CCCCCCCCCCCCCCCCOP(=O)([O-])OCC[N+](C)(C)C` in this test?
Data returned: f

Data request: Which outcome was assigned to `CCN1/C(=C\c2cc[n+](CC)c3ccccc23)C=Cc2ccccc21` in this test?
Data returned: f

---

test system: SN12C renal; assay: NCI-60 one-dose screen, 48 h; settings: 10 µM unless noted
The panel holds about 83,000 compounds, 20% with a hit somewhere; the sample as a whole holds those more often. Activity calls are given as the source filed them. The calls were made as follows: active = growth percent below 10; inactive = the rest.
Parameter call: string, one of Yes = active, No = inactive

Data request: Which outcome was assigned to `CCCCCCCCCCCCCCCCOP(=O)([O-])OCC[N+](C)(C)C` in this test?
Data returned: No

Data request: Which outcome was assigned to `Oc1ccc(/C=N/NC(=S)Nc2ccccc2)nc1` in this test?
Data returned: No

Data request: Which outcome was assigned to `C=C(Cl)C(=NC(C)(C)C)Nc1ccccc1C` in this test?
Data returned: No

Data request: Which outcome was assigned to `O=Nc1ccccc1N=O` in this test?
Data returned: No

Data request: Which outcome was assigned to `O=C1C=CC(=O)N1C1c2ccccc2-c2ccccc21` in this test?
Data returned: No

Data request: Which outcome was assigned to `c1ccc2c(c1)Nc1cc3ccccc3cc1N2` in this test?
Data returned: No

Data request: Which outcome was assigned to `O=C(/C=C\c1cc(Br)ccc1O)/C=C/c1cc(Br)ccc1O` in this test?
Data returned: Yes

Each recorded value in this set is attributed to PubChem BioAssay (NCI).
